Biological target: human COX-1 (Homo sapiens, UniProt P23219)
Sequence (P23219 24-599): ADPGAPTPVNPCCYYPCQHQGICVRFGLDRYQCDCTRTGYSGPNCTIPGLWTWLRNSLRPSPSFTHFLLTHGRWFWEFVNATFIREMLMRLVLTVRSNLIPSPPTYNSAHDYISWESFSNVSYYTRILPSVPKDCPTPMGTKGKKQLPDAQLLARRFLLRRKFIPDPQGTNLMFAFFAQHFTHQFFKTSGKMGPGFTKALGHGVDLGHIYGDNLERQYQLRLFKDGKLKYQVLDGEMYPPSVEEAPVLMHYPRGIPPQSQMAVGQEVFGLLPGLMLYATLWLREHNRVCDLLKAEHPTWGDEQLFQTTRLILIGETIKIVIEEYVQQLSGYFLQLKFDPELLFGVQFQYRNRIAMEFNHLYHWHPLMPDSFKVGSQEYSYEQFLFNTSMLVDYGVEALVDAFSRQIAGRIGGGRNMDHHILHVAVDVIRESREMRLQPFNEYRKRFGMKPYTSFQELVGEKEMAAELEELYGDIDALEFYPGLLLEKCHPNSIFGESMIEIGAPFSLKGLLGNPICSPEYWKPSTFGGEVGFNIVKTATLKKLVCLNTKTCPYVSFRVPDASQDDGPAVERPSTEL
Experiment: COX-1 activity (PGE2 by enzyme immunoassay) in COS-7 cells overexpressing human COX-1
Conditions: COS-7 cells overexpressing human COX-1, 30 min compound then 25 μM arachidonic acid 30 min, n = 3-4, read-out: COX-1 activity IC50 ± S.E.M

# compound, endpoint-unit, IC50
measured = [
    ("CCCCCC(O)c1ccc(O)c(OC)c1 (centres unmarked)", "µM", 2.2),
    ("COc1cc(C(C)(O)c2ccccc2)ccc1O (centres unmarked)", "µM", 8.1),
    ("COc1cc(C(O)c2ccccc2)ccc1O (centres unmarked)", "µM", 1.3),
    ("CCCCC(O)c1ccc(O)c(OC)c1 (centres unmarked)", "µM", 12.1),
    ("COc1cc(C(O)c2ccc(F)cc2)ccc1O (centres unmarked)", "µM", 6.5),
]
